Test system: ECHORC (Watergrass (Calif.))
assay.overview: Postemergence weed control under flooded paddy conditions
Format: in vivo, Echinochloa oryzoides
conditions: rate 0.2500 kg/ha, postemergence weeds, 3-4 weeks after treatment
# binarize Herbicidal rating ECHORC: threshold 7 inclusive, high side Met, low side Not met

[
  {
    "molecule": "CCOC(=O)CN1C(=O)C(C)SC1=Nc1cc(-n2c(=O)cc(C(F)(F)F)n(C)c2=O)c(F)cc1Cl (stereo not shown) [Compound 12]",
    "system.tested": "ECHORC (Watergrass (Calif.))",
    "class.assignment": "Met"
  },
  {
    "molecule": "C=CCN1C(=O)C(CC(=O)Nc2ccccc2)SC1=Nc1cc(-n2c(=O)cc(C(F)(F)F)n(C)c2=O)c(F)cc1Cl (stereo not shown) [Compound 44]",
    "system.tested": "ECHORC (Watergrass (Calif.))",
    "class.assignment": "Met"
  },
  {
    "molecule": "CCOC(=O)CN1CCSC1=Nc1cc(-n2nc(C)n(C(F)F)c2=O)c(F)cc1Cl [Compound 36]",
    "system.tested": "ECHORC (Watergrass (Calif.))",
    "class.assignment": "Met"
  },
  {
    "molecule": "CN1C(=O)C(F)SC1=Nc1cc(N2C(=O)C3=C(CCCC3)C2=O)c(F)cc1Cl (stereo not shown) [Compound 5]",
    "system.tested": "ECHORC (Watergrass (Calif.))",
    "class.assignment": "Not met"
  },
  {
    "molecule": "CCC1SC(=Nc2cc(-n3c(=O)cc(C(F)(F)F)n(C)c3=O)c(F)cc2Cl)N(C)C1=O (stereo not shown) [Compound 10]",
    "system.tested": "ECHORC (Watergrass (Calif.))",
    "class.assignment": "Not met"
  }
]
